experiment: collision cross section of modified peptide (TIMS, N2, iRT-aligned); higher = larger / more extended gas-phase ion; details: charge state: 3; modification: GlyGly (K)
Kindly state collision cross section for each of the entries shown.
# value in Å²; strip the unit string

For reference, reported collision cross section for ITLSKHQNVQLPR [_ITLSK(GlyGly (K))HQNVQLPR_] stands at 493.46

Reported collision cross section ( LQDVSGQLSSSKK [_LQDVSGQLSSSK(GlyGly (K))K_] ) = 490.05

Value of collision cross section reported for the sequence VYIASSSGSTAIKK [_VYIASSSGSTAIK(GlyGly (K))K_] is 498.73

Lab note: measured collision cross section of KFGVLSDNFK [_K(GlyGly (K))FGVLSDNFK_] was 435.06

Given item DVNAAIAAIKTK [_DVNAAIAAIK(GlyGly (K))TK_] , the value recorded as its collision cross section is 465.81

Summary for this sequence, VQGGALEDSQLVAGVAFKK [_VQGGALEDSQLVAGVAFK(GlyGly (K))K_] : collision cross section is 565.73

Notebook: VGLQVVAVKAPGFGDNR [_VGLQVVAVK(GlyGly (K))APGFGDNR_] , collision cross section read as 536.75

Memo: GTISAPGKVVTAAAQAK [_GTISAPGK(GlyGly (K))VVTAAAQAK_] , reported collision cross section: 541.49

For VLDSGAPIKIPVGPETLGR [_VLDSGAPIK(GlyGly (K))IPVGPETLGR_] the sequence record lists collision cross section as 510.19

Per the record, SLEEEGAAHSGKR [_SLEEEGAAHSGK(GlyGly (K))R_] has collision cross section of 473.02

The recorded collision cross section for entry VPTTEKPTVTVNFR [_VPTTEK(GlyGly (K))PTVTVNFR_] equals 523.98

Notebook: TEVLSPNSKVESK [_TEVLSPNSK(GlyGly (K))VESK_] , collision cross section read as 492.13

Form: sequence = SPDEAYAIAKK [_SPDEAYAIAK(GlyGly (K))K_] ; collision cross section = 448.77

// collision cross section lookup, sequence = TPNLYIYSKK [_TPNLYIYSK(GlyGly (K))K_] , result: 446.34

Measured collision cross section of AGPNASIISLKSDK [_AGPNASIISLK(GlyGly (K))SDK_] : 488.88

Note to self: collision cross section recorded for VGVEVPDVNIEGPEGKLK [_VGVEVPDVNIEGPEGK(GlyGly (K))LK_] was 509.72

Just so you know, measured collision cross section for IDLPAENSNSETIIITGKR [_IDLPAENSNSETIIITGK(GlyGly (K))R_] came out at 582.79

Record summary for GEVGAGAGPGAQAGPSAKR [_GEVGAGAGPGAQAGPSAK(GlyGly (K))R_] : reported collision cross section = 469.61

Data point: ALASIDSKLNQAK [_ALASIDSK(GlyGly (K))LNQAK_] ; collision cross section = 469.2

The measured collision cross section associated with SPPLPEHQKIPCNSAEPK [_SPPLPEHQK(GlyGly (K))IPCNSAEPK_] reads 516.26

Record FGTINIVHPKLGSYTK [_FGTINIVHPK(GlyGly (K))LGSYTK_] , field collision cross section: 511.55

Attribution: the supplement of paper PMC10598134
